Provide the recorded growth inhibition for the entries that follow.
- measurement protocol: NCI Yeast Anticancer Drug Screen. Data for the rad50 strain (AID 155);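 further: 0% = growth of vehicle-only cultures of the same strain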
- experimental parameters: S. cerevisiae rad50 strain growth inhibition; at 50.0 µM; hits give high values
The panel holds about 79,000 compounds, 15% with a hit somewhere; the sample as a whole holds those more often.
Give bare numbers, in %.

Reference set, count: 3
1. Fc1ccc(C2SCc3nc4ccccc4n32)cc1F (stereo not given) : -49.9
2. CCCCCCCCCCCCCCCC(=O)NCNC(=O)CCCCCCCCCCCCCCC : -2.15
3. CCCN=C(NC(=O)c1ccc(Cl)cc1)SC : -16.3

For every item below, please supply its growth inhibition.
1. O=[N+]([O-])c1ccc2nc(NCCCO)c3ccccc3c2c1
2. CCCCc1c[nH]n(C(N)=NCCSCc2nc[nH]c2C)c1=O
3. O=C(O)c1nccc2c(O)cccc12
4. O=C(NCCCl)NCC1CCCCO1 (stereo not given)
5. CC(=O)N(C(C)=O)c1ccc2c(c1)Cc1ccccc1-2
6. COc1ccc(Cc2cc(N=O)c(OC)cc2O)cc1
7. COc1cccc(/C=C\C(=O)c2ccccc(=O)c2O)c1OC

Response:
1. 8.2
2. -7.15
3. -5.75
4. -2.8
5. 14.9
6. -12.4
7. 34.5

For every item below, please supply its growth inhibition.
1. CC(C)(C)SCCCCO
2. COc1cc([C@@H]2c3cc4c(cc3[C@](C)(O)[C@H]3COC(=O)[C@H]23)OCO4)cc(OC)c1OC
3. CC1=CN(c2ccccc2)S2=C1c1sc3c(c1N2c1ccc(Br)cc1)CCCC3 (stereo not given)
4. CC(C)c1ccc(Cc2ccc(C(C)C)c(NC(=O)C(=O)Cc3cnc4ccccc4n3)c2C(C)C)c(C(C)C)c1NC(=O)C(=O)Cc1cnc2ccccc2n1
5. COC(=O)C1CCc2ccccc2C1=O (stereo not given)
6. COC(=O)C1(C)CCCC2(C)C3=CC(O)C4(C(C)C)OC4C3(O)CCC12 (stereo not given)

Response:
1: -7.3; 2: 19.7; 3: 0.9; 4: -28.4; 5: -12.6; 6: -9.4

For every item below, please supply its growth inhibition.
1. CCCCCCCOC(=O)COc1ccc(Cl)cc1Cl
2. CC(=O)N1CCCCCC1=O
3. COc1ccc(-c2oc3cc(OC)c(OC)c(O)c3c(=O)c2OC)cc1
4. COC(=O)C12C=CC(C1)n1c(=O)n(-c3ccccc3)c(=O)n12 (stereo not given)
5. CCCOC(=O)CCCC1=NC2=CC=CC3=NC(C)=NC(=N1)N23
6. CCOC(=O)c1ccc(NC(=S)N2CCOCC2)cc1
7. N#C/C(=C\c1ccccc1Cl)C(=O)c1ccccc1
8. O=C(CN1CCOCC1)Nc1cccc(Cl)c1

Response:
1. 11.1
2. -30.3
3. 7.45
4. -8.55
5. -10.3
6. 13.1
7. 11.4
8. 0.5

Prompt: Look up and report measured growth inhibition for this entry: `CCCCCCCCCCc1ccc(CCCCCCCCCC)cc1`
Response: 7

----------
- measurement protocol: NCI Yeast Anticancer Drug Screen. Data for the mec2-1 strain (AID 157)
- experimental parameters: S. cerevisiae mec2-1 strain, at 50.0 µM, hits give high values
- Description: Growth inhibition of yeast strains with defined genetic alterations is measured as a screen for potential anti-cancer activity. Selected strains with alterations in DNA damage repair or cell cycle control were exposed to compounds and growth inhibition was measured relative to vehicle treated controls. The strain used in this assay is mec2-1
Compounds without any hit were thinned out: in the full panel of roughly 79,000, 15% have a hit. Calls of active or inactive are those of the source. Rule as the data show it: active = growth inhibition above about 70%; inactive = the rest. Where a SMILES comes first, the peptide text is derived from it. The star is where a group is joined. Boc = CC(C)(C)OC(=O)*
parameter measured: growth inhibition

Reference set, count: 3
1. C/C=C/C=N/SC(c1ccccc1)(c1ccccc1)c1ccccc1 : -7% (inactive)
2. COc1cc(OC)c(C(=O)/C=C/c2ccccc2)c(O)c1OC : -7.8% (inactive)
3. CSCCC(NC(=O)C(CC(C)C)NC(=O)CNC(=O)OC(C)(C)C)C(=O)N(C)C (stereo not drawn) (Boc-Gly-Leu-Met-NMe2; configuration not given here) : -5.15% (inactive)

For every item below, please supply its growth inhibition.
1. COc1ccc(CCCc2cc3c(cc2OC)OCO3)cc1
2. CC1OC(c2ccc(Cl)cc2Cl)OC1C (stereo not given)

Response:
-4.1% (inactive)
-0.9% (inactive)

----------
- measurement protocol: NCI Yeast Anticancer Drug Screen. Data for the cln2 rad14 strain (AID 165);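 further: 0% = growth equal to vehicle treated cultures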
- experimental parameters: S. cerevisiae cln2 rad14 strain, at 50.0 µM, hits give high values
This is part of a sample that, as a whole, favours compounds with a hit. Of some 79,000 tested, about 15% had one in any assay.
Provide the recorded growth inhibition for the entries that follow.
Answers are plain numbers, in %.

1) COc1cccc(NC(=O)CSc2nnc(Cc3ccccc3)o2)c1 : -8.2
2) C=C1C(=O)OC2CC(C)C3CC(OCCCl)OC(OCCCl)C3(C)CC12 (stereo unspecified) : 7.25
3) COc1ccccc1NC(=O)Cc1nc(=O)[nH]c(=O)[nH]1 : -0.35
4) [Cl][Pt+2][Cl].[NH-]C1CCCC1[NH-] (stereo unspecified) : 3.8
5) CC12C=CC(=O)C=C1CCC1C3CC(F)C(O)(C(=O)CO)C3(C)CC(O)C12F (stereo unspecified) : 25.2

Now for another entry.
Prompt: Look up and report measured growth inhibition for this entry: COC(=O)C(C)(C#N)/C(C)=C/C(C)C (stereo unspecified)
Response: -3.9

----------
- measurement protocol: NCI Yeast Anticancer Drug Screen. Data for the rad50 strain (AID 155);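 further: 0% = growth of vehicle-only cultures of the same strain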
- experimental parameters: S. cerevisiae rad50 strain growth inhibition; at 50.0 µM
About 79,000 compounds went through this panel and 15% of them were active in at least one assay; those are over-represented in the sample as a whole. Active and inactive are the calls of the source. No stated cut-off is given here; in the data, active means growth inhibition above about 70%; inactive means the rest.
Form entry, call: pick from active, inactive

1. CC(=O)Oc1c(C(OC(C)=O)OC(C)=O)ccc([N+](=O)[O-])c1OC(C)=O : inactive
2. O=C(O)c1ccc(Cl)c(C(=O)O)c1 : inactive
3. c1ccc(CN2COc3c(ccc4c5c(ccc34)CN(Cc3ccccc3)CO5)C2)cc1 : inactive
4. O=C1OCC/C1=C1/Nc2ccccc2NC1=O : inactive
5. CC(=O)Nc1ccc(C)cc1[N+](=O)[O-] : inactive

Prompt: Test call, this compound: COC1OC2COC(C)(c3ccccc3)OC2C(O)C1[NH-].COC1OC2COC(C)(c3ccccc3)OC2C(O)C1[NH-].[Cl][Pt+2][Cl] (stereo not given)
Response: inactive

Prompt: Test call, this compound: CCCCCCC(C)C(CC)(C(=O)OCC)C(=O)OCC (stereo not given)
Response: inactive

Prompt: Test call, this compound: `O=CNc1ccc(-c2ccc(NC=O)cc2)cc1`
Response: inactive

Prompt: Test call, this compound: `Cc1c(C)c(C)c(CNNC(=S)Nc2ccc(S(=O)(=O)N3CCCCC3)cc2)c(C)c1C`
Response: inactive

Prompt: Test call, this compound: `CCNC(=O)NCCN1CCOCC1`
Response: inactive

Prompt: Test call, this compound: `CN(C)Cc1cc(C(C)(C)CC(C)(C)C)cc(Br)c1O`
Response: inactive

Prompt: Test call, this compound: `Cc1cc2c(c([N+](=O)[O-])c1C)C(=O)C(Br)=C(Br)C2=O`
Response: inactive

Prompt: Test call, this compound: OC1[C@H](O)CN(OCc2ccccc2)C[C@@H]1O (stereo not given in full)
Response: inactive

Prompt: Test call, this compound: CC(C)(O)C(c1ccccc1)S(=O)(=O)O (stereo not given)
Response: inactive

Prompt: Test call, this compound: `CC(C)(C)OC(=O)NNC(=O)c1ccc([N+](=O)[O-])cc1`
Response: inactive

Prompt: Test call, this compound: `Oc1cc(O)cc(/C=C/c2ccc(O)c(O)c2)c1`
Response: inactive

Prompt: Test call, this compound: O=[N+]([O-])c1ccc(N/N=C2\C=C(c3ccccc3)C(c3ccccc3)C2)c([N+](=O)[O-])c1 (stereo not given)
Response: inactive

Prompt: Test call, this compound: `O=C(c1ccco1)N(C(=S)N1CCN(c2ccccc2)CC1)c1ccccc1`
Response: inactive

----------
- measurement protocol: NCI Yeast Anticancer Drug Screen. Data for the mlh1 rad18 strain (AID 175)
- experimental parameters: S. cerevisiae mlh1 rad18 strain growth inhibition; at 50.0 µM; hits give high values
The panel holds about 79,000 compounds, 15% with a hit somewhere; the sample as a whole holds those more often.
Classification field: enter label 1 for growth inhibition values not below 20%, label 0 for values below it.

Example entries and their recorded answers appear below.
1) O=C(OC(c1ccc(Cl)cc1)c1ccc(Cl)cc1)C(c1ccc(Cl)cc1)c1ccc(Cl)cc1 : label 1
2) CN1CCN(CCSC(=O)C(O)(c2ccccc2)C2CCCC2)CC1 (stereo unspecified) : label 1
3) COc1ccc(/C(Cl)=C/c2cc(OC)ccc2OC)cc1 : label 0
4) CN(CC(=O)O)c1ncc2c(n1)-c1ccccc1OC2c1ccccc1 (stereo unspecified) : label 1
5) C=CCOC(=O)C1CC(C)=CC(C)C1C (stereo unspecified) : label 0

Query compound follows.
Prompt: Is growth inhibition at least 20%? Consider `O=S(=O)(O)c1cc(S(=O)(=O)O)c2c(N=Nc3cccc4ccccc34)c(O)ccc2c1`
Response: label 0
